Each item that follows carries a reported survival.
Tested on: DeltatarO mutant
Assay: S. aureus survival, RN4220 and DeltatarO strains – OD600, teichoic acid synthesis inhibitors, primary screen (AID 463173)
Conditions: S. aureus RN4220 wild type/DeltatarO growth, OD600, 18 h, hits give low values, screened at 18.75 µg/mL (by protocol)
Out of some 52,000 compounds screened, about 4,300 (8.3%) were called active. Shown is part of a subset that was picked to be rich in actives.
reported property: survival (%)

compound: COc1ccccc1CNC(=O)Cn1c(=O)oc2cc(S(=O)(=O)N3CCC(C)CC3)ccc21
reported property: survival
observed measurement: 143

compound: COc1ccc(N2CCN(CC(O)COc3ccccc3C(C)(C)C)CC2)cc1 (stereo unspecified)
reported property: survival
observed measurement: -8

compound: COc1ccc(-c2[nH]c(-c3ccccc3)nc2SCC(=O)NC2CCCC2)cc1
reported property: survival
observed measurement: 67

compound: Cc1ncc(CO)c2c1Oc1nc(-c3ccccc3Cl)nc(SCc3ccccc3F)c1C2
reported property: survival
observed measurement: 72

compound: O=C(O)c1cccc(Nc2ncnc3ccc(Br)cc23)c1
reported property: survival
observed measurement: 119

compound: Clc1ccc(Nc2nc(-c3ccccc3)c3ccccc3n2)c(Cl)c1
reported property: survival
observed measurement: 72

compound: CCOc1ccc(-c2nc(-c3ccccc3)c(-c3ccccc3)[nH]2)cc1OCC
reported property: survival
observed measurement: 142

compound: COc1cccc(CSc2nc3ccncc3n2CC(=O)Nc2ccc(OC)c(OC)c2OC)c1
reported property: survival
observed measurement: 98

compound: COc1ccc(C(NC(C)=O)c2ccc(OC)cc2)cc1
reported property: survival
observed measurement: 77

compound: COc1ccc2cc(-c3nc(Cl)c4c5c(sc4n3)CC(C)CC5)c(=O)oc2c1 (stereo unspecified)
reported property: survival
observed measurement: 77

compound: COc1ccc(-c2nc(-c3ccccc3)c(-c3ccccc3)[nH]2)cc1Br
reported property: survival
observed measurement: 59

compound: Cc1cc2n(n1)CCCN2C(=O)Nc1cccc(C)c1C
reported property: survival
observed measurement: 73

compound: COc1cc2nc(Nc3cccc(C)c3)nc(N)c2cc1OC
reported property: survival
observed measurement: 67

compound: Cc1cc(C)c2nc(N(Cc3cccnc3)C(=O)Cc3ccccc3)sc2c1
reported property: survival
observed measurement: 79

compound: CCc1ccc(-c2nc(CN3CCCC(C(=O)N4CCN(c5cc(Cl)ccc5C)CC4)C3)c(C)o2)cc1 (stereo unspecified)
reported property: survival
observed measurement: 70

compound: Cc1cccc(N2CCN(C(=O)Cn3ncc4c3-c3ccccc3OC4)CC2)c1C
reported property: survival
observed measurement: 77

compound: COc1cc(C)ccc1OCCSc1nc2ccc(NC(=O)c3ccc4c(c3)OCO4)cc2s1
reported property: survival
observed measurement: 64

compound: Cc1ccc2nc(NN)nc(-c3ccccc3)c2c1
reported property: survival
observed measurement: 98

compound: COc1ccc(-c2nc(SCC(=O)Nc3ccccc3)c(-c3ccc(F)cc3)[nH]2)cc1OC
reported property: survival
observed measurement: 49

compound: COc1ccccc1N1CCN(CC(O)COc2ccc(C)cc2C(C)(C)C)CC1 (stereo unspecified)
reported property: survival
observed measurement: 1

compound: CCCNC(=O)Cn1c(=O)n(CC2CCC(C(=O)NC)CC2)c(=O)c2sccc21 (stereo unspecified)
reported property: survival
observed measurement: 87

compound: Cc1oc(-c2cccc(Cl)c2)nc1CN1CCC(C(=O)NCCCN2CCN(c3ccc(F)cc3)CC2)CC1
reported property: survival
observed measurement: 119

compound: COc1ccc(-c2[nH]c(-c3ccc(O)cc3)nc2-c2ccccc2)cc1
reported property: survival
observed measurement: 3

compound: COc1cc(-c2nc(-c3ccccc3)c(-c3ccc(Br)cc3)[nH]2)cc(OC)c1O
reported property: survival
observed measurement: 0

compound: Cc1ccc(C)c(N2CCN(C(=O)C3CCN(Cc4nc(-c5cccc(Cl)c5)oc4C)CC3)CC2)c1
reported property: survival
observed measurement: 47

compound: COc1ccc(Cn2ccnc2SCC(=O)Nc2ccc3c(c2)OCCO3)cc1
reported property: survival
observed measurement: 94

compound: COc1ccccc1NC(=O)c1ccc(C)o1
reported property: survival
observed measurement: 61

compound: COc1ccc(CSc2nc3ccncc3n2CC(=O)Nc2ccc(C)c(F)c2)cc1
reported property: survival
observed measurement: 85

compound: CC1=C(c2ccc(C)c(C)c2)S(=O)(=O)N=C1N1CCC(C(=O)NC(C)Cc2ccco2)CC1 (stereo unspecified)
reported property: survival
observed measurement: 83

compound: CCOc1ccc(-c2nc(Cn3c(=O)cc(-c4ccccc4)c4c(C)nn(C)c43)c(C)o2)cc1
reported property: survival
observed measurement: 128

compound: CCCCSCCCNC(=O)C1CCN(Cc2nc(-c3ccc(CC)cc3)oc2C)CC1
reported property: survival
observed measurement: 46

compound: C=CCc1ccccc1OCC(O)CN1CCN(c2ccccc2)CC1 (stereo unspecified)
reported property: survival
observed measurement: 83

compound: CCc1ccccc1NC(=O)Cn1c(SCc2ccc(F)cc2)nc2ccncc21
reported property: survival
observed measurement: 36

compound: Cc1ccc(C(C)C)c(OCC(O)CN2CCN(c3ccccc3F)CC2)c1 (stereo unspecified)
reported property: survival
observed measurement: -5

compound: CCc1ccc(-c2nc(CN3CCC(C(=O)NCCc4ccc(C)cc4)CC3)c(C)o2)cc1
reported property: survival
observed measurement: 95

compound: COc1ccc(N2CCN(CC(O)COc3ccc(C(C)(C)C)cc3)CC2)cc1 (stereo unspecified)
reported property: survival
observed measurement: 84

compound: COc1ccc(-c2nc(-c3ccccc3)c(-c3ccc(O)cc3)[nH]2)cc1
reported property: survival
observed measurement: 1

compound: COc1ccc(-c2nc(-c3ccccc3)c(-c3ccc(F)cc3)[nH]2)c(OC)c1C
reported property: survival
observed measurement: 5

compound: COc1cccc(C(=O)NCC(c2ccc(N(C)C)cc2)N2CCc3ccccc32)c1 (stereo unspecified)
reported property: survival
observed measurement: 144

compound: Cc1ccccc1CNC(=O)CCCn1c(=O)c2cccn2c2cccnc21
reported property: survival
observed measurement: 114

compound: COc1cc(-c2nc(SCC(=O)Nc3ccc(C)cc3)c(-c3ccc(F)cc3)[nH]2)cc(OC)c1OC
reported property: survival
observed measurement: 91
